biological target: Mab PPAT (Mycobacteroides abscessus, UniProt B1MDL6); test: Isothermal titration calorimetry (ITC) on Mab PPAT; assay type: binding, Mycobacterium abscessus; conditions: ITC, Mab PPAT 72 μM, 50 mM Tris-HCl pH 8.0, 150 mM NaCl; read-out: Kd (Mab PPAT)
Sequence (B1MDL6 whole entry): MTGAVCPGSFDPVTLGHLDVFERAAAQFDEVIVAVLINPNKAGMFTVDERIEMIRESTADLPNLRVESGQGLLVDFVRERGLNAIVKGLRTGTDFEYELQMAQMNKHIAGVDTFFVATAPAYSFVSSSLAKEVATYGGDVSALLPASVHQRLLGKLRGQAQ
Value Type: Kd (µM)
Report as a plain number; the unit µM is understood.

INSERT INTO assay_data (compound, experimental_result) VALUES
  ('CC(C)(COP(=O)(O)OP(=O)(O)OC[C@H]1O[C@@H](n2cnc3c(N)ncnc32)[C@H](O)[C@@H]1OP(=O)(O)O)[C@@H](O)C(=O)NCCC(=O)NCCS [Coenzyme A, reference compound]', 8.2);

Consider the record given below.
In: I would be grateful if you could share the reported Kd for `O=C(O)c1cnn(-c2ccccc2)c1OCCCc1c[nH]c2ccccc12` .
Out: 3.2
